# Organism: Canis familiaris
# procedure-text: Percent of radioactive dose in urine and feces excreted by 0-24 hr in dogs; NA is <10% inhibition at 1 uM for binding data
# Assay type: ADME, organism-based, Canis lupus familiaris
# condition-info: dog, in vivo
observation-type: Dose

Consider the molecule shown here: CC(C)Oc1ccccc1N1CCN(Cc2cccc(C(=O)N3CCCC(O)C3)c2)CC1 (stereo unspecified) What is its recorded Dose?
< 2%

* * *

# measured-on: 5-hydroxytryptamine receptor 1A (Rattus norvegicus)
# Sequence (P19327 whole entry): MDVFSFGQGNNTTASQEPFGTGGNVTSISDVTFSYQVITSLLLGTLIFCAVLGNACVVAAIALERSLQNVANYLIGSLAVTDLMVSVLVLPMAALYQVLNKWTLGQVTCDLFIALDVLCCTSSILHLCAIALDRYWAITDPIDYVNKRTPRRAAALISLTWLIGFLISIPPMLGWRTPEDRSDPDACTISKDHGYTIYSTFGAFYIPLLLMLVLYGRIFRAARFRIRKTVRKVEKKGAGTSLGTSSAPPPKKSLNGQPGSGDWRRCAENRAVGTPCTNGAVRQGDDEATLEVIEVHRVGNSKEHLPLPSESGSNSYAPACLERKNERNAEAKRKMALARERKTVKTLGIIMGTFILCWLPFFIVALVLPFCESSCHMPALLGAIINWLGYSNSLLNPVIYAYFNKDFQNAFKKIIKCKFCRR
# procedure-text: In vitro ability to displace serotonin 5-HT1A receptor binding to rat cerebral cortex in competition experiments against [3H]8-(hydroxy)dipropyl aminotetralin at 1 mg/kg concentration
observation-type: Ki (nM)
Only the number, expressed in nM, is required.

Consider the compound shown here: "CC(C)Oc1ccccc1N1CCN(Cc2cccc(C(=O)N3CCC(O)CC3)c2)CC1" What is its recorded Ki?
7.8

* * *

# Species on record: Rattus norvegicus
# procedure-text: Percent of radioactive dose in urine and feces excreted in 0-24 hr by rats; NA is <10% inhibition at 1 uM for binding data
# Type: ADME, organism-based
# condition-info: in vivo
observation-type: Dose

INSERT INTO measurements (compound, meas_value) VALUES
  ('CC(C)Oc1ccccc1N1CCN(Cc2cccc(C(=O)N3CCCC(O)C3)c2)CC1 (configuration not stated)', '< 2%');

Consider the compound shown here: CC(C)Oc1ccccc1N1CCN(Cc2cccc(C(=O)N3CCCCC3O)c2)CC1 (configuration not stated) What is its recorded Dose?
< 2%

* * *

pKi values by entry
# measured-on: 5-hydroxytryptamine receptor 1A (Rattus norvegicus, UniProt P19327)
# procedure-text: In vitro ability to displace serotonin 5-HT1A receptor binding to rat cerebral cortex in competition experiments against [3H]8-(hydroxy)dipropyl aminotetralin at 15 mg/kg concentration
The value called pKi is obtained by taking minus log10 of the concentration in mol/L.

INSERT INTO results (compound, meas_value) VALUES
  ('CC(C)Oc1ccccc1N1CCN(Cc2cccc(C(=O)N3CCCCC3O)c2)CC1 (configuration not stated)', 8.52);

# next compound below
GET /values?readout=pKi&system=5-hydroxytryptamine receptor 1A (Rattus norvegicus, UniProt P19327)&item= CC(C)Oc1ccccc1N1CCN(Cc2cccc(C(=O)N3CCCC(O)C3)c2)CC1 (configuration not stated)
8.17
